Test: collision cross section of modified peptide (TIMS, N2, iRT-aligned); higher = larger / more extended gas-phase ion
Settings: charge state: 3; modification: Glutarylation
Endpoint: collision cross section (Å²)
Output spec: scalar in Å², unitless text.

Below: 3 sequences and their reported collision cross section.
1) GTISAPGKVVTAAAQAK [_GTISAPGK(Gluratylation)VVTAAAQAK_] = 526.52
2) ITLSKHQNVQLPR [_ITLSK(Gluratylation)HQNVQLPR_] = 526.02
3) VGLQVVAVKAPGFGDNR [_VGLQVVAVK(Gluratylation)APGFGDNR_] = 510.32

Query :: In one line, give reported collision cross section of the entry ASDTSSETVFGKR [_ASDTSSETVFGK(Gluratylation)R_] .
Result :: 483.77

Query :: In one line, give reported collision cross section of the entry IHNAENIQPGEQKYEYK [_IHNAENIQPGEQK(Gluratylation)YEYK_] .
Result :: 532.09

====

Experiment: collision cross section of modified peptide (TIMS, N2, iRT-aligned); higher = larger / more extended gas-phase ion
Conditions: charge state: 2; modification: Crotonyl
Outcome: rule met for collision cross section of at least 400 Å²; rule not met for anything lower.

1. GSLEKGSPEDK [_GSLEK(Crotonyl)GSPEDK_] = rule not met
2. VLDSGAPIKIPVGPETLGR [_VLDSGAPIK(Crotonyl)IPVGPETLGR_] = rule met
3. PSVSTKLISK [_PSVSTK(Crotonyl)LISK_] = rule not met

Query :: API: above_or_equal(metric=collision cross section, cutoff=400 Å²) for item FLQEFYQDDELGKK [_FLQEFYQDDELGK(Crotonyl)K_]
Result :: rule met

Query :: API: above_or_equal(metric=collision cross section, cutoff=400 Å²) for item SLEEEGAAHSGKR [_SLEEEGAAHSGK(Crotonyl)R_]
Result :: rule met

Query :: API: above_or_equal(metric=collision cross section, cutoff=400 Å²) for item GGPGSTLSFVGKR [_GGPGSTLSFVGK(Crotonyl)R_]
Result :: rule not met

Query :: API: above_or_equal(metric=collision cross section, cutoff=400 Å²) for item SPSDSGYSYETIGKTTK [_SPSDSGYSYETIGK(Crotonyl)TTK_]
Result :: rule met

====

Test: collision cross section of modified peptide (TIMS, N2, iRT-aligned); higher = larger / more extended gas-phase ion
Conditions: charge state: 2; modification: Methyl (K)
Outcome: yes for collision cross section of at least 400 Å²; no for anything lower.

Examples with answers:
1. KFGVLSDNFK [_K(Methyl (K))FGVLSDNFK_] = no
2. LAEEENKAK [_LAEEENK(Methyl (K))AK_] = no
3. ANLEKAQAELVGTADEATR [_ANLEK(Methyl (K))AQAELVGTADEATR_] = yes

Now consider a different sequence.
Query :: API: above_or_equal(metric=collision cross section, cutoff=400 Å²) for item LEQVEKELLR [_LEQVEK(Methyl (K))ELLR_]
Result :: no

====

Assay: collision cross section of modified peptide (TIMS, N2, iRT-aligned); higher = larger / more extended gas-phase ion
Conditions: charge state: 3; modification: hydroxyisobutyryl
Endpoint: collision cross section (Å²)
Output spec: scalar in Å², unitless text.

Below: 4 sequences and their reported collision cross section.
1) LLIVSTTPYSEKDTK [_LLIVSTTPYSEK(hydroxyisobutyryl)DTK_] = 486.54
2) PSVGSQSNQAGQGKR [_PSVGSQSNQAGQGK(hydroxyisobutyryl)R_] = 477.11
3) TTGFYSGFSEVAEKR [_TTGFYSGFSEVAEK(hydroxyisobutyryl)R_] = 515.51
4) DVNAAIAAIKTK [_DVNAAIAAIK(hydroxyisobutyryl)TK_] = 466.43

Query :: In one line, give reported collision cross section of the entry DHLSDKESK [_DHLSDK(hydroxyisobutyryl)ESK_] .
Result :: 415.53

Query :: In one line, give reported collision cross section of the entry VNIGQGSHPQKVK [_VNIGQGSHPQK(hydroxyisobutyryl)VK_] .
Result :: 488.96

Query :: In one line, give reported collision cross section of the entry AAINQKLIETGER [_AAINQK(hydroxyisobutyryl)LIETGER_] .
Result :: 478.62

From: the supplement of paper PMC10598134
